# credit: ChEMBL document CHEMBL1131863

Test system: Staphylococcus aureus
Assay: The compound was tested in vitro for antibacterial activity against erythromycin susceptible Staphylococcus aureus 011UC4
Format: functional

{"COMPOUND": "CC[C@H]1OC(=O)[C@H](C)C(=O)[C@H](C)[C@@H](O[C@@H]2O[C@H](C)C[C@H](N(C)C)[C@H]2O)[C@](C)(OC)C[C@@H](C)C(=O)[C@H](C)[C@H]2N(CCCCc3ccnc4ccccc34)C(=O)O[C@]12C", "MEASURED_ON": "Staphylococcus aureus", "MIC": "0.04 µg/mL"}
{"COMPOUND": "CC[C@H]1OC(=O)[C@H](C)[C@@H](O[C@H]2C[C@@](C)(OC)[C@@H](O)[C@H](C)O2)[C@H](C)[C@@H](O[C@@H]2O[C@H](C)C[C@H](N(C)C)[C@H]2O)[C@](C)(OC)C[C@@H](C)C(=O)[C@H](C)[C@@H](O)[C@]1(C)O [CLARITHROMYCIN]", "MEASURED_ON": "Staphylococcus aureus", "MIC": "0.3 µg/mL"}
{"COMPOUND": "CC[C@H]1OC(=O)[C@H](C)C(=O)[C@H](C)[C@@H](O[C@@H]2O[C@H](C)C[C@H](N(C)C)[C@H]2OC(C)=O)[C@](C)(OC)C[C@@H](C)C(=O)/C(C)=C/[C@]1(C)OC(=O)n1ccnc1", "MEASURED_ON": "Staphylococcus aureus", "MIC": "0.08 µg/mL"}
{"COMPOUND": "CC[C@H]1OC(=O)[C@H](C)[C@@H](O[C@H]2C[C@@](C)(OC)[C@@H](O)[C@H](C)O2)[C@H](C)[C@@H](O[C@@H]2O[C@H](C)C[C@H](N(C)C)[C@H]2O)[C@](C)(O)C[C@@H](C)CN(C)[C@H](C)[C@@H](O)[C@]1(C)O [AZITHROMYCIN]", "MEASURED_ON": "Staphylococcus aureus", "MIC": "0.3 µg/mL"}

----------
Here the recorded MIC is given for each entry.
Test system: Streptococcus pneumoniae
Test: The compound was tested in vitro for antibacterial activity against inducibly erythromycin resistant Streptococcus pneumoniae 030J5i
Type: functional
MEASURED_ENDPOINT: MIC (µg/mL)

{"SMILES_DATA": "CC[C@H]1OC(=O)[C@H](C)C(=O)[C@H](C)[C@@H](O[C@@H]2O[C@H](C)C[C@H](N(C)C)[C@H]2O)[C@](C)(OC)C[C@@H](C)C(=O)[C@H](C)[C@H]2N(CCCCc3ccnc4ccccc34)C(=O)O[C@]12C", "MEASURED_ENDPOINT": "MIC", "UNIT_SPEC": "µg/mL", "EXPERIMENTAL_RESULT": 0.02}
{"SMILES_DATA": "CC[C@H]1OC(=O)[C@H](C)[C@@H](O[C@H]2C[C@@](C)(OC)[C@@H](O)[C@H](C)O2)[C@H](C)[C@@H](O[C@@H]2O[C@H](C)C[C@H](N(C)C)[C@H]2O)[C@](C)(O)C[C@@H](C)CN(C)[C@H](C)[C@@H](O)[C@]1(C)O", "MEASURED_ENDPOINT": "MIC", "UNIT_SPEC": "µg/mL", "EXPERIMENTAL_RESULT": 40}
{"SMILES_DATA": "CC[C@H]1OC(=O)[C@H](C)C(=O)[C@H](C)[C@@H](O[C@@H]2O[C@H](C)C[C@H](N(C)C)[C@H]2OC(C)=O)[C@](C)(OC)C[C@@H](C)C(=O)/C(C)=C/[C@]1(C)OC(=O)n1ccnc1", "MEASURED_ENDPOINT": "MIC", "UNIT_SPEC": "µg/mL", "EXPERIMENTAL_RESULT": 0.08}
{"SMILES_DATA": "CC[C@H]1OC(=O)[C@H](C)[C@@H](O[C@H]2C[C@@](C)(OC)[C@@H](O)[C@H](C)O2)[C@H](C)[C@@H](O[C@@H]2O[C@H](C)C[C@H](N(C)C)[C@H]2O)[C@](C)(OC)C[C@@H](C)C(=O)[C@H](C)[C@@H](O)[C@]1(C)O", "MEASURED_ENDPOINT": "MIC", "UNIT_SPEC": "µg/mL", "EXPERIMENTAL_RESULT": 40}
